SYSTEM UNDER TEST: E. coli GluRS (Escherichia coli, UniProt P04805)
Construct: His tag (histidine tag) (C); made in house
Sequence (P04805 whole entry): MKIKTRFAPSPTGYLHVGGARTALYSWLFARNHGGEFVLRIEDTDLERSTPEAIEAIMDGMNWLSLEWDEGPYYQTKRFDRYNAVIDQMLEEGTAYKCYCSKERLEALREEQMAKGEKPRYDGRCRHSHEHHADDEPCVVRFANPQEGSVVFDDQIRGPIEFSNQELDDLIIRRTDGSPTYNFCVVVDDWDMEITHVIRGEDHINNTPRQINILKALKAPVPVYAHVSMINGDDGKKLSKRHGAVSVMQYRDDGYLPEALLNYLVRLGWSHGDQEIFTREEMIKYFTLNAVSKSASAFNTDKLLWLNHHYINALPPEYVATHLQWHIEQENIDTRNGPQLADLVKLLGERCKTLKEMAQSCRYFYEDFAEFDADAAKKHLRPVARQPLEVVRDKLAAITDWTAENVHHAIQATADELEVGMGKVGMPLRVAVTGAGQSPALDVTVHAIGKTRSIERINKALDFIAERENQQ
METHOD SUMMARY: Isothermal titration microcalorimetry of Glu-AMS binding to GluRS in the absence of tRNA
MEASUREMENT SETUP: Kd (dissociation constant), single ITC run; no tRNA; 303 K; [ligand] 90 µM; [GluRS] 4.143 µM; Kd = 1/Kb
METRIC NAME: pKd
A value of pKd is the negative decimal logarithm of a concentration given in moles per litre.

Asked: Hello, please tell me recorded pKd for this one: Nc1ncnc2c1ncn2[C@@H]1O[C@H](COS(=O)(=O)NC(=O)[C@@H](N)CCC(=O)O)[C@@H](O)[C@H]1O [Glu-AMS, 5’-O-[N-(L-glutamyl)sulfamoyl]adenosine]
Given back: 6.55

Attribution: paper PMC4393105
